- TESTED SYSTEM: HA-mouse μOR (Mus musculus, UniProt P42866)
- Sequence (P42866 whole entry): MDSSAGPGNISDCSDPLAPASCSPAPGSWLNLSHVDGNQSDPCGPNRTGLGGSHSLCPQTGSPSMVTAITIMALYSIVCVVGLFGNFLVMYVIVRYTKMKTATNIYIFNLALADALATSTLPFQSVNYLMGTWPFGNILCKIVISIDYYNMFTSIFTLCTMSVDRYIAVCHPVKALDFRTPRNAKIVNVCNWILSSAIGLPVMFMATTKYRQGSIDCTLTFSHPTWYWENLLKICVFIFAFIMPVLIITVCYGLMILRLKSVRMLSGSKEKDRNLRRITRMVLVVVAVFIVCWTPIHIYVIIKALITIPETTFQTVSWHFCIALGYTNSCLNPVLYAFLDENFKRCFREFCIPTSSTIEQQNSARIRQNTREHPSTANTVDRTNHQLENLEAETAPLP
- ASSAY OVERVIEW: GloSensor cAMP inhibition assay at μOR in transfected HEK cells
- Assay type: cell-based
- RECORDED CONDITIONS: HEK293, read-out: cAMP inhibition at μOR Emax % ± SEM
MEASURED PROPERTY: Emax (%)
Respond with the bare value in %.

C/C=C1\CN2CC[C@@]34c5ccccc5N(CCc5ccccc5)[C@]35OC[C@@]4(C(=O)OC)[C@H]1C[C@H]25	76
C/C=C1/CN2CC[C@@]34c5cc(O)c(Br)cc5N(C)[C@]35OC[C@@]4(C(=O)OC)[C@H]1C[C@H]25	40
C[C@@H](NC(=O)[C@@H](N)Cc1ccc(O)cc1)C(=O)NCC(=O)N(C)[C@@H](Cc1ccccc1)C(=O)NCCO [DAMGO, reference compound]	96
C/C=C1/CN2CC[C@@]34c5cc(O)ccc5N(C)[C@]35OC[C@@]4(C(=O)OC)[C@H]1C[C@H]25 [Compound 1, Akuammine, reference compound]	62
C/C=C1\CN2CC[C@@]34c5ccccc5N(CC)[C@]35OC[C@@]4(C(=O)OC)[C@H]1C[C@H]25	59
C/C=C1/CN2CC[C@@]34c5ccccc5N(C)[C@]35OC[C@@]4(C(=O)OC)[C@H]1C[C@H]25 [Compound 2, Pseudoakuammigine, reference compound]	82

Quick note, Emax for C/C=C1\CN2CC[C@@]34c5ccccc5N(Cc5ccccc5)[C@]35OC[C@@]4(C(=O)OC)[C@H]1C[C@H]25 landed at 63

Kindly note the recorded Emax for C/C=C1/CN2CC[C@@]34c5cc(O)c(I)cc5N(C)[C@]35OC[C@@]4(C(=O)OC)[C@H]1C[C@H]25 , which is 32

Recorded values, source paper PMC10037270.
